The measurements presented in this section are drawn from ChEMBL document CHEMBL1128454.

experiment_notes: Compound was evaluated for pKa
Assay type: physicochemical
Let's look at some molecules and their measured pKa.
Form: value (number only, do not type unit).

Worked examples, 4 molecules total:
CC(=O)Nc1ccc(OC(=O)Nc2cc(Cl)ccc2O)cc1
9.49
COc1ccc(OC(=O)Nc2cc(Cl)ccc2O)cc1
10.2
O=C(Nc1cc(Cl)ccc1O)Oc1ccccc1
10
O=C(Nc1cc(Cl)ccc1O)OCC(Cl)Cl
13.2

Now for the molecule whose pKa we want.
Given `CC(=O)Nc1ccc(OC(=O)Nc2cc(C(=O)c3ccccc3)ccc2O)cc1` , state its recorded pKa. 9.49

----------
experiment_notes: its hydrolysis half life in human plasma (pH 7.4)
Type: ADME, organism-based
experimental_context: read-out: T1/2
observable: log10 of half-life (log10 of the value in min)
log10 half-life, min

Field: example entries. Status: answers known.
COc1ccccc1OCC(CNC(=O)Oc1ccc(NC(C)=O)cc1)OC (stereo unspecified)
2.13
CC(=O)Nc1ccc(OC(=O)NCC(O)COc2cc(C)cc(C)c2)cc1 (stereo unspecified)
1.65
O=C(Nc1cc(Cl)ccc1O)OCC(Cl)Cl
2.02
COc1ccccc1OCC(O)CNC(=O)Oc1ccc(NC(C)=O)cc1 (stereo unspecified)
1.77
CC(=O)Nc1ccc(OC(=O)Nc2cc(C(=O)c3ccccc3)ccc2O)cc1
1.01

Moving on to the next compound.
log10 of half-life for `O=C(Nc1cc(Cl)ccc1O)OCC(Cl)(Cl)Cl` ? 1.00

----------
experiment_notes: its hydrolysis half life in human plasma (pH 7.4)
Type: ADME, organism-based
observable: half-life (min)
API: value field is a number in min; no unit string.

CC(=O)Nc1ccc(OC(=O)Nc2cc(Cl)ccc2O)cc1
1.1

# ---- query compound ----
# query: half-life of entry `CC(=O)Nc1ccc(OC(=O)Nc2ccc(C(=O)c3ccccc3)cc2O)cc1` 1

----------
experiment_notes: Compound was evaluated for its hydrolysis half life obtained from the relation Kobs was measured in a pH 7.4 phosphate buffer at 37 degree C (micro = 0.5 M ).
Type: ADME
experimental_context: buffer
observable: T1/2 (h)
Just the number please, in h, no unit attached.

Look up T1/2 for this molecule: `C#CCOC(=O)Nc1cc(Cl)ccc1O` 1.81

----------
The following compounds are shown together with reported half-life values.
experiment_notes: its hydrolysis half life in rat plasma (pH 7.4)
Type: ADME, organism-based
experimental_context: read-out: T1/2
Please state the figure in min; there is no need to write the unit.

Field: example entries. Status: answers known.
COc1ccccc1OCC(O)CNC(=O)Oc1ccc(NC(C)=O)cc1 (stereo unspecified)
58
O=C(Nc1cc(Cl)ccc1O)OCC(Cl)Cl
53.8
O=C(Nc1cc(Cl)ccc1O)OCC(Cl)(Cl)Cl
7.5
COc1ccccc1OCC(CNC(=O)Oc1ccc(NC(C)=O)cc1)OC (stereo unspecified)
153
CC(=O)Nc1ccc(OC(=O)Nc2cc(C(=O)c3ccccc3)ccc2O)cc1
2.9

// moving on: another record for half-life
Could you share which half-life value was measured for CC(=O)Nc1ccc(OC(=O)NCC(O)COc2cc(C)cc(C)c2)cc1 (stereo unspecified) ? 62

----------
experiment_notes: Compound was evaluated for its hydrolysis half life obtained from the relation Kobs was measured in a pH 7.4 phosphate buffer at 37 degree C (micro = 0.5 M ).
Format: ADME
experimental_context: phosphate buffer
A collection of compounds and their measured half-life
Value expressed in min; do not type the unit.

# annotated cases, reported half-life shown
CC(C)(C)OC(=O)Nc1ccc(OC(=O)Nc2cc(Cl)ccc2O)cc1
0.187
O=C(Nc1cc(Cl)ccc1O)Oc1cccc(Cl)c1
0.0634
CC(=O)Nc1ccc(OC(=O)Nc2cc(C(=O)c3ccccc3)ccc2O)cc1
0.233
CCOC(=O)Nc1cc(Cl)ccc1O
418000

Kindly review the next compound as well.
Requested read-out: half-life. Entry: `CC(=O)Nc1ccc(OC(=O)Nc2ccc(C(=O)c3ccccc3)cc2O)cc1` 0.0965
